assay_overview: Metabolic stability in human liver S9 fractions
Assay type: in vitro ADME
measure: microsomal CLint at 1 µM (µL/min/mg)
Use µL/min/mg as the unit, but write only the number.

Input CCOc1ccc(OCC(O)CN(C)Cc2c(C)nn(Cc3ccccc3Cl)c2C)cc1 (stereo not shown) . Output microsomal CLint at 1 µM: 300

###

tested_system: CYP1A2 (Homo sapiens)
Sequence (P05177 whole entry): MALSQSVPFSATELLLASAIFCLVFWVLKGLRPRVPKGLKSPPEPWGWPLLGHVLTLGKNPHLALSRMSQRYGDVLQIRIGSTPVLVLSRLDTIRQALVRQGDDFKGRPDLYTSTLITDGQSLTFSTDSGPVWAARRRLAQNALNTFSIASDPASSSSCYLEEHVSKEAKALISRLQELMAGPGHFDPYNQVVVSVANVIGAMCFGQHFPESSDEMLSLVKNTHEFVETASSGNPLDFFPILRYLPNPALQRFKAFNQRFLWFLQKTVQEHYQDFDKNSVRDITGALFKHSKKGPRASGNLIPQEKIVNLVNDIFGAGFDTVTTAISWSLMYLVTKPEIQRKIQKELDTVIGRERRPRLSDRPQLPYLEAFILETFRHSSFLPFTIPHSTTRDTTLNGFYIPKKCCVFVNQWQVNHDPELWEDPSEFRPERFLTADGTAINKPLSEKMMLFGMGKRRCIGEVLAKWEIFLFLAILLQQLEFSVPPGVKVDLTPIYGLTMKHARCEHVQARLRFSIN
measure: IC50

Result for CCOc1ccc(OCC(O)CN(C)Cc2c(C)nn(Cc3ccccc3Cl)c2C)cc1 (stereo not shown) , tested on CYP1A2 (Homo sapiens), IC50: > 100 µM
